Subject Of Test: hPPARdelta (Homo sapiens, UniProt Q03181)
Construct: Gal4-hPPARδ(LBD); Gal4 (fusion partner); expressed in transfected cells; host or cells: COS-7 (monkey kidney)
Experiment Notes: Gal4-hPPARdelta transactivation assay in COS-7 cells (luciferase)
Type: cell-based
Condition Context: maximal relative activation vs reference
Parameter Measured: Gal4-hPPARδ(LBD) TOP (% ref)
Answers are plain numbers, in % ref.

Compound: COC(c1ccc(SC)cc1)C1CC1c1cc(C)c(OC(C)(C)C(=O)O)c(C)c1 (racemic) [Cpd 3-2]
Subject Of Test: hPPARdelta (Homo sapiens, UniProt Q03181)
Display Unit: % ref
Result: 75
--
Compound: CCCCOC(c1ccc(OC(F)(F)F)cc1)C1CC1c1cc(C)c(OC(C)(C)C(=O)O)c(C)c1 (racemic) [Cpd 5-2]
Subject Of Test: hPPARdelta (Homo sapiens, UniProt Q03181)
Display Unit: % ref
Result: 60

Can you give me Gal4-hPPARδ(LBD) TOP (% ref) for all of these, one by one?
1. COC(c1ccc(Br)cc1)C1CC1c1cc(C)c(OC(C)(C)C(=O)O)c(C)c1 (racemic) [Cpd 1-2]
2. COC(c1ccc(C(F)(F)F)cc1F)C1CC1c1cc(C)c(OC(C)(C)C(=O)O)c(C)c1 (racemic) [Cpd 12-2]
3. COC(c1ccc(OC(F)(F)F)cc1)C1CC1c1ccc(OC(C)(C)C(=O)O)c(C(C)C)c1 (racemic) [Cpd 15-2]
4. Cc1cc(C2CC2C(OCCC2CCCCC2)c2ccc(OC(F)(F)F)cc2)cc(C)c1OC(C)(C)C(=O)O (racemic) [Cpd 6-2]
5. COC(c1ccc(C(F)(F)F)cc1C(F)(F)F)C1CC1c1cc(C)c(OC(C)(C)C(=O)O)c(C)c1 (racemic) [Cpd 16-2]

83
78
96
66
71

====

Subject Of Test: hPPARalpha (Homo sapiens, UniProt Q07869)
Construct: Gal4-hPPARα(LBD); Gal4 (fusion partner); expressed in transfected cells; host or cells: COS-7 (monkey kidney)
Sequence (Q07869 239-466 limits assumed): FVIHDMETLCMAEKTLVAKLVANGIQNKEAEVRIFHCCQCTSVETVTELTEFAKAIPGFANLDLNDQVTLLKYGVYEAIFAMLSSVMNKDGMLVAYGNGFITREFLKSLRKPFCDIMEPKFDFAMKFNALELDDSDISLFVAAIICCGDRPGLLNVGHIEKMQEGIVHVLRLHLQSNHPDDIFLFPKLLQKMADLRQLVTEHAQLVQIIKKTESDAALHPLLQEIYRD
Experiment Notes: Gal4-hPPARalpha transactivation assay in COS-7 cells (luciferase)
Assay type: cell-based
Condition Context: Gal4-hPPARα(LBD) transactivation; listed as cpd 14-2-2
Parameter Measured: EC50 (nM)
One number for each entry, in nM.

# compound COC(c1ccc(OC(F)(F)F)cc1)C1CC1c1cc(C)c(OC(C)(C)C(=O)O)c(C)c1 (stereo not shown) [Cpd 14-2-2] ; its EC50 = 17

====

Experiment Notes: Compound pharmacokinetics study in mice (plasma and brain)
Assay type: in vivo
Condition Context: male, Swiss, plasma; mouse, PO (10 mpk) versus iv (2 mpk); read-out: F % (bioavailability)
Parameter Measured: bioavailability
Put down the number, then write its unit next to it.

Per the record, COC(c1ccc(OC(F)(F)F)cc1)C1CC1c1cc(C)c(OC(C)(C)C(=O)O)c(C)c1 (single isomer, unassigned) has bioavailability of 93%

====

Subject Of Test: hPPARdelta (Homo sapiens)
Construct: Gal4-hPPARδ(LBD); Gal4 (fusion partner); expressed in transfected cells; host or cells: COS-7 (monkey kidney)
Sequence (Q03181 211-439 limits assumed): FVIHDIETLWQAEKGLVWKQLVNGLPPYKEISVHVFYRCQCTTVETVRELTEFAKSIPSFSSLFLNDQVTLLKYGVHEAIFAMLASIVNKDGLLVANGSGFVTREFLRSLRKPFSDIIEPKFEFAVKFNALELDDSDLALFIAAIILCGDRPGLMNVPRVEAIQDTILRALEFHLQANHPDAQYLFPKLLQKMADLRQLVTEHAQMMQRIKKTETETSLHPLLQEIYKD
Experiment Notes: Gal4-hPPARdelta transactivation assay in COS-7 cells (luciferase)
Assay type: cell-based
Condition Context: Gal4-hPPARδ(LBD) transactivation
What EC50 was measured for each of the following?
In your response, put the unit directly after the numeric value.

Molecule: Cc1cc(C2CC2C(OCc2ccccc2)c2ccc(OC(F)(F)F)cc2)cc(C)c1OC(C)(C)C(=O)O (single isomer, unassigned) [Cpd 11-1]
Subject Of Test: hPPARdelta (Homo sapiens)
EC50: 79 nM

Go through the items and report each one's EC50.
1. COC(c1ccc(OC(F)(F)F)cc1)C1CC1c1ccc(OC(C)(C)C(=O)O)c(C(C)C)c1 (single isomer, unassigned) [Cpd 15-2]
2. COC(c1ccccc1OC(F)(F)F)C1CC1c1cc(C)c(OC(C)(C)C(=O)O)c(C)c1 (single isomer, unassigned) [Cpd 13-1]
3. COC(c1ccc(OC(F)(F)F)cc1)C1CC1c1ccc(OC(C)(C)C(=O)O)c(C(C)C)c1 (single isomer, unassigned) [Cpd 15-1]

123 nM
328 nM
105 nM

For each of the molecules below, state EC50.
1. COC(c1ccc(OC(F)(F)F)cc1)C1CC1c1cc(C)c(OC(C)(C)C(=O)O)c(C)c1 (single isomer, unassigned) [Cpd 14-2]
2. COC(c1ccc(OC(F)(F)F)cc1)C1CC1c1ccc(OC(C)(C)C(=O)O)c(Br)c1 (racemic) [Cpd 19-1]

["30 nM", "26 nM"]

====

Subject Of Test: hPPARgamma (Homo sapiens, UniProt P37231)
Construct: Gal4-hPPARγ(LBD); Gal4 (fusion partner)
Sequence (P37231 238-503 limits assumed): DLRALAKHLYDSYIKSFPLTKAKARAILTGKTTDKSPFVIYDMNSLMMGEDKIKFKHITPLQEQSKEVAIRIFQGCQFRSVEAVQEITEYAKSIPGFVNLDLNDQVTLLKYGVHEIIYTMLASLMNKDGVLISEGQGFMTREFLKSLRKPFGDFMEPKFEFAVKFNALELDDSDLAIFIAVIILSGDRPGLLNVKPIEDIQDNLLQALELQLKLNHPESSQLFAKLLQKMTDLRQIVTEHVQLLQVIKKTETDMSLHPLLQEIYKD
Experiment Notes: Gal4-hPPARgamma transactivation assay in COS-7 cells (luciferase)
Condition Context: Gal4-hPPARγ(LBD) transactivation
For each entry below, report its pEC50 value.
One number for each entry, as −log10 of the molar value.

Molecule: COC(c1ccc(SC)cc1)C1CC1c1cc(C)c(OC(C)(C)C(=O)O)c(C)c1 (single isomer, unassigned) [Cpd 3-2]
Subject Of Test: hPPARgamma (Homo sapiens, UniProt P37231)
Result: 7.74

Molecule: Cc1cc(C2CC2C(OCCC2CCCCC2)c2ccc(OC(F)(F)F)cc2)cc(C)c1OC(C)(C)C(=O)O (racemic) [Cpd 6-2]
Subject Of Test: hPPARgamma (Homo sapiens, UniProt P37231)
Result: 7.47

Molecule: Cc1cc(C2CC2C(OCc2ccccc2)c2ccc(OC(F)(F)F)cc2)cc(C)c1OC(C)(C)C(=O)O (single isomer, unassigned) [Cpd 11-1]
Subject Of Test: hPPARgamma (Homo sapiens, UniProt P37231)
Result: 6.94

Molecule: COC(c1ccc(C(F)(F)F)cc1C(F)(F)F)C1CC1c1cc(C)c(OC(C)(C)C(=O)O)c(C)c1 (single isomer, unassigned) [Cpd 16-2]
Subject Of Test: hPPARgamma (Homo sapiens, UniProt P37231)
Result: 8.70

Molecule: COC(c1ccc(C(F)(F)F)cc1C(F)(F)F)C1CC1c1cc(C)c(OC(C)(C)C(=O)O)c(C)c1 (single isomer, unassigned) [Cpd 16-1]
Subject Of Test: hPPARgamma (Homo sapiens, UniProt P37231)
Result: 7.85

Please look at the following molecule next.
Sample COC(c1ccccc1OC(F)(F)F)C1CC1c1cc(C)c(OC(C)(C)C(=O)O)c(C)c1 (single isomer, unassigned) [Cpd 13-1] ; pEC50 observed: 7.14

====

Provide the reported EC50 of each item.
Subject Of Test: hPPARalpha (Homo sapiens, UniProt Q07869)
Construct: Gal4-hPPARα(LBD); Gal4 (fusion partner); expressed in transfected cells; host or cells: COS-7 (monkey kidney)
Experiment Notes: Gal4-hPPARalpha transactivation assay in COS-7 cells (luciferase)
Assay type: cell-based
Condition Context: Gal4-hPPARα(LBD) transactivation
Give bare numbers, in nM.

Record excerpt, results attached:
Compound: CCOC(c1ccc(OC(F)(F)F)cc1)C1CC1c1cc(C)c(OC(C)(C)C(=O)O)c(C)c1 (racemic) [Cpd 10-1]
Subject Of Test: hPPARalpha (Homo sapiens, UniProt Q07869)
EC50 / nM: 38
//
Compound: COC(c1ccc(C(F)(F)F)cc1)C1CC1c1cc(C)c(OC(C)(C)C(=O)O)c(C)c1 (racemic) [Cpd 4-1]
Subject Of Test: hPPARalpha (Homo sapiens, UniProt Q07869)
EC50 / nM: 64
//
Compound: COC(c1ccc(SC)cc1)C1CC1c1cc(C)c(OC(C)(C)C(=O)O)c(C)c1 (single isomer, unassigned) [Cpd 3-1]
Subject Of Test: hPPARalpha (Homo sapiens, UniProt Q07869)
EC50 / nM: 105
//
Compound: Cc1cc(C2CC2C(OCc2ccccc2)c2ccc(OC(F)(F)F)cc2)cc(C)c1OC(C)(C)C(=O)O (single isomer, unassigned) [Cpd 11-1]
Subject Of Test: hPPARalpha (Homo sapiens, UniProt Q07869)
EC50 / nM: 21
//
Compound: COC(c1ccc(C)cc1)C1CC1c1cc(C)c(OC(C)(C)C(=O)O)c(C)c1 (racemic) [Cpd 2-1]
Subject Of Test: hPPARalpha (Homo sapiens, UniProt Q07869)
EC50 / nM: 635

// below: EC50 requested for another compound
Given item COC(c1ccc(C(F)(F)F)cc1F)C1CC1c1cc(C)c(OC(C)(C)C(=O)O)c(C)c1 (single isomer, unassigned) [Cpd 12-2] , the value recorded as its EC50 is 90
